Cited source: paper PMC5916898

TESTED SYSTEM: T1, VEZF1 (Homo sapiens, UniProt Q14119)
T1 sequence: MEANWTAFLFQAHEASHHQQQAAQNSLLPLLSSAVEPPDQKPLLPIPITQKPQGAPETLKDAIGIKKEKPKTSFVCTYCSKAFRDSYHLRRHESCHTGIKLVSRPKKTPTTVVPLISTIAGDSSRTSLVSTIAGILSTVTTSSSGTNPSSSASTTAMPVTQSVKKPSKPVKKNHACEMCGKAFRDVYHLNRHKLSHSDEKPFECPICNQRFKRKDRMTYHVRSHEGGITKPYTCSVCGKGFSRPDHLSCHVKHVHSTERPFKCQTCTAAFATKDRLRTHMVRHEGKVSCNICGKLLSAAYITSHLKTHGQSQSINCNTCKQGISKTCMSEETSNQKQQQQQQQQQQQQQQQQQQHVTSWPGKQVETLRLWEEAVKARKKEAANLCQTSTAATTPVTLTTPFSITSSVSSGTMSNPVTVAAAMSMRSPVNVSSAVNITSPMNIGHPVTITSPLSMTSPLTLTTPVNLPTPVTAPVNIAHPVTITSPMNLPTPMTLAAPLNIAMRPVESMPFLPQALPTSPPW
METHOD NOTES: competition; 150 mM NaCl, 50 mM Tris pH 8, 0.25% NP-40, 1 mM TCEP; 4 C, 2 h; 100 ug HeLa nuclear lysate; free competitor against 200 nM immobilised SP/KLF wild-type
STUDY CONDITIONS: protein: extract
MEASURED ATTRIBUTE: pIC50
Kindly note that pIC50 refers to -log10 of the concentration in mol/L and answer with the value alone.

Which pIC50 value is on record for SP/KLF wild-type (dsDNA) DNA 1: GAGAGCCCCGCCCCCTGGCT DNA 2: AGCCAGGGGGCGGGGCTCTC ?
6.57
